Sourced from patent US20110177071A1

ASSAY SYSTEM: T1, human CD80-murine Ig fusion protein (human)
T1 construct: Bought (Ancell #510-820); also called hCD80-mIg; human CD80-murine IgG
T1 chain: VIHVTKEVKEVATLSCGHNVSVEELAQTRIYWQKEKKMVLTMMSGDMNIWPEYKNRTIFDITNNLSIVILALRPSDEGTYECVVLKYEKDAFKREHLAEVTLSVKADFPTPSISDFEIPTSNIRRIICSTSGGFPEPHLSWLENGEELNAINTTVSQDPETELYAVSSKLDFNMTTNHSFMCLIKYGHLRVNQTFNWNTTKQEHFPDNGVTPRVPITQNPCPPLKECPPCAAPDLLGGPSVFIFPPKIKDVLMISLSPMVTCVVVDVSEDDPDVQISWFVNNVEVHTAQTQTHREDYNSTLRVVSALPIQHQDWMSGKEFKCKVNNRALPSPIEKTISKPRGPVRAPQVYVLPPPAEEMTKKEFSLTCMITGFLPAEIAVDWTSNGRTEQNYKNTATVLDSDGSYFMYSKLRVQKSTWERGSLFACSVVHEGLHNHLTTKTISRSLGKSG
EXPERIMENTAL PROTOCOL: SPR Biacore, hCD80-mIg captured
pKd: −log10 of the molar value.
Recorded pKd, one value per entry.
MEASUREMENT LABEL: pKd

[[record]]
binder = "D24-IgG2 (Fc fusion) MHVAQPAVVLASSRGIASFVCEYESPGKANEIRVTVLRKAGSQVTEVCAMTYMKEDELTFLDDPSCTGTFSGNQVNLTIQGLRAADTGLYICKVELMYPPPYYLGLGNGTQIYVIDPEPCPDSDERKCCVECPPCPAPPVAGPSVFLFPPKPKDTLMISRTPEVTCVVVDVSHEDPEVQFNWYVDGVEVHNAKTKPREEQFNSTFRVVSVLTVVHQDWLNGKEYKCKVSNKGLPAPIEKTISKTKGQPREPQVYTLPPSREEMTKNQVSLTCLVKGFYPSDIAVEWESNGQPENNYKTTPPMLDSDGSFFLYSKLTVDKSRWQQGNVFSCSVMHEALHNHYTQKSLSLSPG"
measurement_label = "pKd"
measured_value = "8.76 to 9.36"

[[record]]
binder = "D3-72-IgG2 (Fc fusion) MHVAQPAVVLASSRGIASFVCEYESPGKANEIRVTVLRQADSQVTEVCAMTYMKGNELTFLDDPSCTGTFSGNQVNLTIQGLRAMDTGLYICKVELMYPPPYYEGIGNGTQIYVIDPEPCPDSDERKCCVECPPCPAPPVAGPSVFLFPPKPKDTLMISRTPEVTCVVVDVSHEDPEVQFNWYVDGVEVHNAKTKPREEQFNSTFRVVSVLTVVHQDWLNGKEYKCKVSNKGLPAPIEKTISKTKGQPREPQVYTLPPSREEMTKNQVSLTCLVKGFYPSDIAVEWESNGQPENNYKTTPPMLDSDGSFFLYSKLTVDKSRWQQGNVFSCSVMHEALHNHYTQKSLSLSPG"
measurement_label = "pKd"
measured_value = "> 9.36"

